Listing of recorded IC50 by entry.
Target: HLA-B1301 (Homo sapiens, UniProt P01889, A65T/A93T/A95T/D138N/D201E/D98Y/E176V/E204Q/E69M/E70A/G107R/K202T/L105A/L119I/N104T/N87E/Q94N/R106L/R155S/R169L/R180L/S101N/S121R/S35A/S48T/T118I/V127L/V36M/Y140L/Y91S)
Experiment: Competitive peptide binding assay, CIR-B1301
Details: HMy2.CIR-B1301 cells, reference Cy5-[…], class from inhibition at 5 and 15 μM, flow cytometry MFI; read-out: Binding affinity with HLA-B1301
Peptide text beside a SMILES is read from it.

Below: 5 compounds and their reported IC50.
- compound: "CC(C)C[C@H](NC(=O)[C@@H](N)CCC(N)=O)C(=O)N[C@H](C(=O)N1CCC[C@H]1C(=O)N[C@H](C(=O)N[C@@H](Cc1c[nH]c2ccccc12)C(=O)N[C@@H](CCCNC(=N)N)C(=O)N[C@H](C(=O)N[C@@H](Cc1ccc(O)cc1)C(=O)O)C(C)C)[C@@H](C)O)[C@@H](C)O [Epitope Y175] (H-QLTPTWRVY-OH; N-terminus and C-terminus assumed)"
  measurement-kind: "IC50"
  value: "> 15 µM"
- compound: "CSCC[C@H](NC(=O)[C@H](C)NC(=O)[C@@H]1CCCN1C(=O)[C@H](CC(=O)O)NC(=O)[C@H](C)NC(=O)[C@H](C)NC(=O)[C@H](Cc1ccc(O)cc1)NC(=O)[C@@H](NC(=O)[C@@H](N)CC(C)C)C(C)C)C(=O)O [Epitope Y165] (H-LVYAADPAM-OH; N-terminus and C-terminus assumed)"
  measurement-kind: "IC50"
  value: "5 to 15 µM"
- compound: "CSCC[C@H](NC(=O)[C@H](C)NC(=O)[C@H](CCC(=O)O)NC(=O)[C@H](Cc1ccc(O)cc1)NC(=O)[C@H](Cc1ccccc1)NC(=O)[C@H](CCC(=O)O)NC(=O)[C@@H]1CCCN1C(=O)[C@H](CCC(=O)O)NC(=O)[C@@H](N)Cc1c[nH]c2ccccc12)C(=O)O [Epitope Y200] (H-WEPEFYEAM-OH; N-terminus and C-terminus assumed)"
  measurement-kind: "IC50"
  value: "> 15 µM"
- compound: "CC[C@H](C)[C@H](NC(=O)[C@@H](NC(=O)CNC(=O)[C@H](CC(N)=O)NC(=O)[C@H](CO)NC(=O)[C@H](CC(=O)O)NC(=O)[C@H](C)N)[C@@H](C)O)C(=O)N[C@H](C(=O)N[C@H](C(=O)O)C(C)C)[C@@H](C)O [Epitope Y216] (H-ADSNGTITV-OH; N-terminus and C-terminus assumed)"
  measurement-kind: "IC50"
  value: "> 15 µM"
- compound: "C[C@H](NC(=O)[C@H](CO)NC(=O)[C@H](CO)NC(=O)[C@@H](N)Cc1ccc(O)cc1)C(=O)N[C@@H](CC(N)=O)C(=O)N[C@@H](CC(N)=O)C(=O)N[C@@H](CS)C(=O)N[C@H](C(=O)N[C@@H](Cc1ccccc1)C(=O)O)[C@@H](C)O [Epitope Y247] (H-YSSANNCTF-OH; N-terminus and C-terminus assumed)"
  measurement-kind: "IC50"
  value: "> 15 µM"

API: the following record is the query input.
Give its IC50 value. Item: CC(C)C[C@H](NC(=O)[C@H](CC(C)C)NC(=O)[C@H](C)NC(=O)[C@H](CCC(N)=O)NC(=O)[C@H](CCCNC(=N)N)NC(=O)[C@@H](NC(=O)[C@H](CCCNC(=N)N)NC(=O)[C@H](CCC(=O)O)NC(=O)CN)C(C)C)C(=O)O [Epitope Y202] (H-GERVRQALL-OH; N-terminus and C-terminus assumed)
> 15 µM

---

Target: HLA-B1501 (Homo sapiens, UniProt P01889, A329T/A93T/A95T/C349S/D201E/D98Y/E187L/E204Q/E69M/E70A/K202T/N87E/Q94N/R155S/R180W/S121R/S35A/S48A/V306I/V36M/Y140S/Y91S)
Assay: Competitive peptide binding assay, CIR-B1501
Settings: HMy2.CIR-B1501 cells, reference Cy5-[…], class from inhibition at 5 and 15 μM, flow cytometry MFI; read-out: Binding affinity with HLA-B1501
pIC50: −log10 of the molar value. Peptide text beside a SMILES is read from it.
Listing of recorded pIC50 by entry.

Below: 2 compounds and their reported pIC50.
- compound: "CC(C)C[C@H](NC(=O)[C@H](CC(=O)O)NC(=O)[C@H](C)NC(=O)[C@H](C)NC(=O)[C@@H]1CCCN1C(=O)[C@@H](N)CC(C)C)C(=O)N[C@@H](CC(=O)O)C(=O)N[C@@H](CC(=O)O)C(=O)N[C@@H](Cc1ccccc1)C(=O)O [Epitope Y180] (H-LPAADLDDF-OH; N-terminus and C-terminus assumed)"
  pIC50: "4.82 to 5.30"
- compound: "CC(C)C[C@H](N)C(=O)N1CCC[C@H]1C(=O)N[C@@H](CC(N)=O)C(=O)N[C@@H](CC(N)=O)C(=O)N[C@H](C(=O)N[C@@H](C)C(=O)N[C@@H](CO)C(=O)N[C@@H](Cc1c[nH]c2ccccc12)C(=O)N[C@@H](Cc1ccccc1)C(=O)O)[C@@H](C)O [Epitope Y17] (H-LPNNTASWF-OH; N-terminus and C-terminus assumed)"
  pIC50: "< 4.82"

Give its pIC50 value. Item: CC(C)C[C@H](NC(=O)[C@H](CC(C)C)NC(=O)[C@@H](NC(=O)[C@@H](NC(=O)[C@@H](NC(=O)[C@H](CCC(N)=O)NC(=O)[C@H](CCC(N)=O)NC(=O)[C@H](CCCCN)NC(=O)[C@@H](N)CCCCN)[C@@H](C)O)C(C)C)[C@@H](C)O)C(=O)O [Epitope Y196] (H-KKQQTVTLL-OH; N-terminus and C-terminus assumed)
< 4.82

---

Target: HLA-B5801 (Homo sapiens, UniProt P01889, A329T/C349S/D201E/D98Y/E176V/E187L/E204Q/E69T/G107R/I218V/I90N/K202T/L105A/L119I/N104I/N87E/Q89R/Q94S/R106L/R155S/R180L/R86G/S101N/S121R/S35A/S48A/T118I/V127L/V306I/V36M/Y140S/Y91M)
Test: Competitive peptide binding assay, CIR-B5801
Settings: HMy2.CIR-B5801 cells, reference Cy5-[…], class from inhibition at 5 and 15 μM, flow cytometry MFI; read-out: Binding affinity with HLA-B5801
pIC50: −log10 of the molar value. Peptide text beside a SMILES is read from it.
Listing of recorded pIC50 by entry.

- compound: "CC(C)C[C@H](NC(=O)[C@H](CC(=O)O)NC(=O)[C@H](C)NC(=O)[C@H](C)NC(=O)[C@@H]1CCCN1C(=O)[C@@H](N)CC(C)C)C(=O)N[C@@H](CC(=O)O)C(=O)N[C@@H](CC(=O)O)C(=O)N[C@@H](Cc1ccccc1)C(=O)O [Epitope Y180] (H-LPAADLDDF-OH; N-terminus and C-terminus assumed)"
  pIC50: "< 4.82"

Give its pIC50 value. Item: CC[C@H](C)[C@H](NC(=O)CNC(=O)[C@H](CC(=O)O)NC(=O)[C@H](CCCCN)NC(=O)[C@H](CC(N)=O)NC(=O)[C@H](C)NC(=O)CNC(=O)[C@H](Cc1ccc(O)cc1)NC(=O)[C@@H]1CCCN1C(=O)[C@@H](N)CC(C)C)C(=O)O [Epitope Y273] (H-LPYGANKDGI-OH; N-terminus and C-terminus assumed)
< 4.82

---

Molecular target: HLA-B0702 (Homo sapiens)
Construct: expressed in transfected cells; host or cells: HMy2.CIR
Experiment: Competitive peptide binding assay, CIR-B0702
Details: HMy2.CIR-B0702 cells, reference Cy5-[…], class from inhibition at 5 and 15 μM, flow cytometry MFI
Peptide text beside a SMILES is read from it.
measurement-kind: IC50

- molecule: "CC[C@H](C)[C@H](NC(=O)CNC(=O)[C@H](CC(=O)O)NC(=O)[C@H](CCCCN)NC(=O)[C@H](CC(N)=O)NC(=O)[C@H](C)NC(=O)CN)C(=O)N[C@H](C(=O)N[C@@H](Cc1c[nH]c2ccccc12)C(=O)O)[C@@H](C)CC [Epitope Y301] (H-GANKDGIIW-OH; N-terminus and C-terminus assumed)"
  target-of-assay: "HLA-B0702 (Homo sapiens)"
  IC50: "5 to 15 µM"

API: the following record is the query input.
Form field - read-out: IC50; system: HLA-B0702 (Homo sapiens); submitted item: CC(C)C[C@H](NC(=O)[C@H](CC(=O)O)NC(=O)[C@H](C)NC(=O)[C@H](C)NC(=O)[C@@H]1CCCN1C(=O)[C@@H](N)CC(C)C)C(=O)N[C@@H](CC(=O)O)C(=O)N[C@@H](CC(=O)O)C(=O)N[C@@H](Cc1ccccc1)C(=O)O [Epitope Y180] (H-LPAADLDDF-OH; N-terminus and C-terminus assumed)
> 15 µM
